The reported measurements were obtained from patent US20240067637A1.

Target: human recombinant GABAA α5β3γ2 receptor (Homo sapiens (Human), UniProt P18507+P31644)
Sequence (P31644 32-462): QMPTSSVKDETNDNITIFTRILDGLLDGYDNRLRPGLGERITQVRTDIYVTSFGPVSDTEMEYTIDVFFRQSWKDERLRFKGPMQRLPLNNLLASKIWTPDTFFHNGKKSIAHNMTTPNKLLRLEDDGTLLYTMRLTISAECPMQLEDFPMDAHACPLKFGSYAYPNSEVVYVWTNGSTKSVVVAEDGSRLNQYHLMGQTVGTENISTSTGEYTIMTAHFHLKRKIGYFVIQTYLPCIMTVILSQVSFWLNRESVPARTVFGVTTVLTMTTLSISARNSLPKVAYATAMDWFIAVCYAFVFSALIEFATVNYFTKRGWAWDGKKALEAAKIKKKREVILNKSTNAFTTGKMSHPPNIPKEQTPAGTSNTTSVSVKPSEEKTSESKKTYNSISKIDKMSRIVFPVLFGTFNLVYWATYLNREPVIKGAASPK
Sequence (P28472 26-473 partner): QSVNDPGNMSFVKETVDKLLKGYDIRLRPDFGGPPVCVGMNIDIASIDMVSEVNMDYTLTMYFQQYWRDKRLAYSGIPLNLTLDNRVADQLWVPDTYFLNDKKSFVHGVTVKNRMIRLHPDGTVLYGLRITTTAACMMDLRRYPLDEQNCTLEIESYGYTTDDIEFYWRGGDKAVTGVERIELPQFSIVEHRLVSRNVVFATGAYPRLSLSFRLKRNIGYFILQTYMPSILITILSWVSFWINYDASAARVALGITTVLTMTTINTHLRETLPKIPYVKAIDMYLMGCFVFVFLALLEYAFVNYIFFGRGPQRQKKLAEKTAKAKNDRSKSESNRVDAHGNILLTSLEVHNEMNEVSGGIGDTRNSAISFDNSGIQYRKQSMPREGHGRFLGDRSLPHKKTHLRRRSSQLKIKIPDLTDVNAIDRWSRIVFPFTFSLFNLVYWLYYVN
Sequence (P18507 40-475): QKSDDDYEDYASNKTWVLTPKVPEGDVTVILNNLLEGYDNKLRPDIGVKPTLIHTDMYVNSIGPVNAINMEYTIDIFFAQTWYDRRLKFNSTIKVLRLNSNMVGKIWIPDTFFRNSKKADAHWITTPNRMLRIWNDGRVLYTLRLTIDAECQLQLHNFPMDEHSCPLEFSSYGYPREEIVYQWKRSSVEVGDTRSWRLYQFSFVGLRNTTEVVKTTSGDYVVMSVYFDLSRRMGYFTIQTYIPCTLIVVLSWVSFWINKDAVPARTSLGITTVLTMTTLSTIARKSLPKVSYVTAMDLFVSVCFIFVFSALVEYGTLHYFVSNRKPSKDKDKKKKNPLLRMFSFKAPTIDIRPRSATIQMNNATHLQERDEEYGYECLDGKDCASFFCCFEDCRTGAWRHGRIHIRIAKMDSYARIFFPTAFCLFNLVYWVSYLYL
Assay: Radioligand ([3H]Ro151788) receptor binding assay
Details: membranes of HEK cells expressing human recombinant GABAA α5β3γ2; 0.5 nM [3H]Ro151788; 60 minutes at 4° C.; read-out: hGABAA α5 Ki
Measured Attribute: Ki (nM)

Cc1ccc(-c2noc(C)c2COc2cc3c(cn2)CN(C(=O)OC(C)(C)C)CC3)cn1    38

P. Cc1ccc(-c2noc(C)c2COc2cc3c(cn2)CN(C(=O)C2CC(=O)N(C(C)C)C2)CC3)cn1 (stereo not shown)
Q. CC(=O)N1CCc2cc(OCc3c(C)nnn3-c3ccc(C(F)(F)F)nc3)ncc2C1
QUERY: # min-compare on Ki between P and Q In your reply, give the label of the chosen option.
RESULT: P
